Assay: Light generation from compounds following incubation with hydrogen peroxide in different pH solutions (D-cysteine conversion, LDR)
Assay type: biochemical
Details: pH 10.4; signal with peroxide to background no peroxide
Decide using Signal to Background Ratios alone. Strictly below 20: T. Equal to or above 20: F.

Is it true that Signal to Background Ratios reported for N#Cc1nc2ccc(OCc3ccc(B(O)O)c(Cl)c3)cc2s1 [PBI 4470] is less than 20?
T

---
Is the reported Signal to Background Ratios for CC1(C)OB(c2ccc(COc3ccc4nc(C#N)sc4c3)cc2)OC1(C)C [PBI 4472] strictly below 20?
F

Please determine if CC1(C)OB(c2ccc(COc3ccc4nc(C#N)sc4c3)cc2F)OC1(C)C [PBI 4481] is below 20 in terms of Signal to Background Ratios.
F

Please indicate whether the reported Signal to Background Ratios of N#Cc1nc2ccc(OCc3ccc(B(O)O)cc3)cc2s1 [PBI 4452] is strictly below 20.
T

Record O=C(O)C1CSC(c2nc3ccc(OCc4ccc(B(O)O)cc4)cc3s2)=N1 (stereo not drawn) [PBI 3048] : is its Signal to Background Ratios strictly below 20?
T
